Molecular target: PDE5 enzyme (Homo sapiens, UniProt O76074)
Construct: The PDE5 enzyme isolated from human platelets; from tissue; host or cells: human platelets
Experiment: Method 1: Human Platelet PDE5 Enzyme Inhibition Scintillation Proximity Assay
Format: biochemical
Conditions: METHOD 1: PDE5 IC50, Table B, WO2004096810 examples
Measured log10(IC50), listed per entry.
test.readout: log10(IC50) (log10 of the value in nM)

- CCOCCn1nc(C)c2nc(N3C[C@@H](C)NC[C@@H]3C)nc(Nc3ccncn3)c21: 0.39
- CCOCCn1nc(COC)c2nc(N3CC(N(C)C)C3)nc(Nc3cc(C)ccn3)c21: 0.72
- CCc1nn(CCOC)c2c(Nc3ccc(C)cn3)nc(N3CCNCC3)nc12: 1.34
- CCOCCn1nc(CC)c2nc(N(C)[C@H]3CCN(C)C3)nc(Nc3ccc(C)cn3)c21: 0.49
- Cc1cccc(Nc2nc(N3CCNCC3)nc3c(C)nn(CCOCC(F)(F)F)c23)n1: 0.30
- CCCc1nn(C)c2c(Nc3cccc(C(=O)NC)n3)nc(N3CCNCC3)nc12: 3.14

* * *

Target: PDE5 enzyme (Homo sapiens)
Construct: The PDE5 enzyme isolated from human platelets; from tissue; host or cells: human platelets
Assay: Method 1: Human Platelet PDE5 Enzyme Inhibition Scintillation Proximity Assay
Format: biochemical
Conditions: METHOD 1: PDE5 IC50, Table B, WO2004096810 examples
pIC50: −log10 of the molar value.
Measured pIC50, listed per entry.
test.readout: pIC50

* CCOCCn1nc(COC)c2nc(N3CCN[C@H](C)C3)nc(Nc3cccc(C)n3)c21 | 8.80
* CCOCCn1nc(C)c2nc(N3CCN[C@H](C)C3)nc(Nc3ccc(OC)cn3)c21 | 9.02
* CCOCCn1nc(C)c2nc(N3CCN[C@H](C)C3)nc(Nc3cc(C)ncn3)c21 [WO2004096810 Example 26] | 8.74
* CCc1nn(CCOC)c2c(Nc3cc(C)n[nH]3)nc(N3CCNCC3)nc12 | 6.47
* COCc1nn(CCOCC(F)(F)F)c2c(Nc3cc(C)ccn3)nc(N3CC4CCC(C3)N4)nc12 | 8.43

* * *

Measured pIC50, listed per entry.
Target: PDE5 enzyme (Homo sapiens, UniProt O76074)
Construct: The PDE5 enzyme isolated from human platelets; from tissue; host or cells: human platelets
Assay: Method 1: Human Platelet PDE5 Enzyme Inhibition Scintillation Proximity Assay
Format: biochemical
Conditions: METHOD 1: PDE5 IC50, Table B, WO2004096810 examples
pIC50: −log10 of the molar value.
test.readout: pIC50

* Cc1cc(Nc2nc(N3CCC(C(=O)O)CC3)nc3c(C)nn(CCOCC(F)(F)F)c23)ncn1 | 9.03
* CCOCCn1nc(COC)c2nc(N(C)CC)nc(Nc3ccncn3)c21 | 8.88
* CCOCCn1nc(COC)c2nc(N(C)C)nc(Nc3cc(C)ccn3)c21 | 8.89
* CCOCCn1nc(CC)c2nc(N3C[C@H](C)NC[C@H]3C)nc(Nc3cc(C)ccn3)c21 | 9.26
* CCOCCn1nc(C)c2nc(N3CCN[C@H](C)C3)nc(Nc3cc(C(F)(F)F)ccn3)c21 | 8.00
* CCOCCn1nc(C)c2nc(N(C)CCO)nc(Nc3cc(C)ccn3)c21 | 9.15
* COCCn1nc(C)c2nc(N3C[C@H](C)NC[C@H]3C)nc(Nc3cc(C)ccn3)c21 | 8.35
* CCCOCCn1nc(C)c2nc(N3CCN[C@H](C)C3)nc(Nc3ccncn3)c21 | 9.41
* CCOCCn1nc(C)c2nc(N(C)CCOC)nc(Nc3ccnc(C)n3)c21 | 7.39
* CCOCCn1nc(C)c2nc(N3CCN[C@H](C)C3)nc(Nc3ccnc(C)n3)c21 | 8.44
